Could you please report measured %Inh for the items listed next?
- Test system: AMPK-alpha2
- Construct: gene PRKAA2
- ASSAY CONTEXT: concentration: 1 μM,replicates: in singlicate; n = 1
Enter your answer as a number in %; do not include the unit.

Ask: Enter reported %Inh observed with AMPK-alpha2 for "Cc1occc1-c1nc(N)c(OC[C@@H](N)Cc2c[nH]c3ccccc23)cc1-c1cc2c(C)n[nH]c2cn1"
Result: 0

Ask: AMPK-alpha2 / %Inh / "Cc1cc2cn[nH]c2cc1-c1cccc2c(N)c(C(N)=O)nnc12" : value?
Result: 74

Ask: Please tell me: %Inh of "Cc1ccc2c(-c3ccncc3)c(-c3ccc(F)cc3)nn2c1.Cl" , system AMPK-alpha2?;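 note: KINOMEscan kinase panel screen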
Result: 1

Ask: Look up %Inh with AMPK-alpha2 for this molecule: "Cl.Cl.NC[C@H](CC1CCCCC1)NC(=O)c1cc(Br)c(-c2ccnc3[nH]ccc23)s1"
Result: 20
